# target.or.test.system: T1, human IL-13 R130Q variant (R110Q of the mature chain) (human, UniProt P35225 35-146, Biotinylated on amines (NHS-LC-biotin, 4:1) in ELISA, panning and competition assays. The letters are unchanged.)
# T1 construct: R130Q counts from Met 1 of the signal peptide, R110Q on the mature chain; Bought from Peprotech; also called IL-13 R110Q; b-R130Q
# T1 sequence (P35225 35-146 limits assumed, stated change not applied): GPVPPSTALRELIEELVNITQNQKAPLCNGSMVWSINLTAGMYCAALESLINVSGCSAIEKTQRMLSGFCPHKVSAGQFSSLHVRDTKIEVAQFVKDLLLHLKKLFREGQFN
# assay.protocol: Ra2 binding inhibition ELISA, mAb in crude HEK293 supernatant, IL-13 binding to IL-13Ra2
assay.metric: % Ra2 Binding Inhibition (%)

1. mAb with Lc 2C09 (Lc6 variant) and Hc2 (antibody, V domains shown, human IgG1) VH: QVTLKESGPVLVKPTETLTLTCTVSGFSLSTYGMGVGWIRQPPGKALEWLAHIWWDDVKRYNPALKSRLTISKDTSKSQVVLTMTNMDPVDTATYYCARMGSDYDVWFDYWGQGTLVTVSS VL: EIVLTQSPATLSLSPGERATLSCRASKSISKYLAWYQQKPGQAPRLLIYSGSTLQSGIPARFSGSGSGTDFTLTISSLEPEDFAVYYCQQHEWGPYTFGQGTKLEIK; 87.6
2. mAb with Lc 2H08 (Lc6 variant) and Hc2 (antibody, V domains shown, human IgG1) VH: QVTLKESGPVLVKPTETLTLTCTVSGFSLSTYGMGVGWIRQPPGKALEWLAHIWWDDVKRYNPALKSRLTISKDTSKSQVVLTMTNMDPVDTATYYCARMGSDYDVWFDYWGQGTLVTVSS VL: EIVLTQSPATLSLSPGERATLSCRASKSISKYLAWYQQKPGQAPRLLIYSGSTLQSGIPARFSGSGSGTDFTLTISSLEPEDFAVYYCQQHLDSPYTFGQGTKLEIK; 62.3
3. mAb with Lc 2H09 (Lc6 variant) and Hc2 (antibody, V domains shown, human IgG1) VH: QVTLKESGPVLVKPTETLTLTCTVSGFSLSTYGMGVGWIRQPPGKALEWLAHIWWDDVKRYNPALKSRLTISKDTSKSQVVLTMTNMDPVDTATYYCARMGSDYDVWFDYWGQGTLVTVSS VL: EIVLTQSPATLSLSPGERATLSCRASKSISKYLAWYQQKPGQAPRLLIYSGSTLQSGIPARFSGSGSGTDFTLTISSLEPEDFAVYYCQQPIDAPYTFGQGTKLEIK; 62.5

Data provenance: patent US20120045438A1
